molecular target: T1, ILT2 mutant 2 (human, UniProt Q8NHL6 24-650); assay: flow cytometry, ILT2 point mutants
T1 construct: transfected in HEK293T cells; also called M2
T1 sequence (Q8NHL6 other isoform, or with tags, fused parts or gaps mutant): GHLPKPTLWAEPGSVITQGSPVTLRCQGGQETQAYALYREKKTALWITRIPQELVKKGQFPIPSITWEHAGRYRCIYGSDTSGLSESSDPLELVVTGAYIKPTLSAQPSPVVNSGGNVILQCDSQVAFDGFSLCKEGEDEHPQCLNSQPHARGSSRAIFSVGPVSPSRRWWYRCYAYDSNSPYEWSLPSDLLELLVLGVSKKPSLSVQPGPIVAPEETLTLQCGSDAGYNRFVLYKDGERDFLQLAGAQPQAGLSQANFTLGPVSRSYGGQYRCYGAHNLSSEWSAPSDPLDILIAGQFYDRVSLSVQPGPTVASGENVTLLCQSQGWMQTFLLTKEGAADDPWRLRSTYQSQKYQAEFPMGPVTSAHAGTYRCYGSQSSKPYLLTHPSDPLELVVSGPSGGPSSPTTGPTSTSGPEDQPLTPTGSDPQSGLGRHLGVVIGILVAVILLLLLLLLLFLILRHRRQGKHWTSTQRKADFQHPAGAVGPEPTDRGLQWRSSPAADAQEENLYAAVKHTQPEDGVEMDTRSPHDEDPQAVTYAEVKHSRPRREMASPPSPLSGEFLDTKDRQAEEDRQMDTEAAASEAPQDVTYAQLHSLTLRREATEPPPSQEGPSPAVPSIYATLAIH

{"BINDER": "2E2B (antibody, human IgG1, V domains shown) VH: DVQLVESGPELVKPGASVKISCKASGYSFTNYYMQWVKQRPGQGLEWIGWIFPGGGESNYNEKFKGKATLSADTSSTTAYMQLSSLTSEDSAVYFCARTWNYDARWGYWGQGTTVTVSS VL: DIVLTQSPASLAVSLGQRATISCIPSESIDSYGISFMHWYQQKPGQPPKLLIYRASNLESGIPARFSGSGSRTDFTLTINPVEADDVATYYCQQSNEDPFTFGSGTKLEIK", "binding result": "no binding"}
{"BINDER": "4H3 (antibody, human IgG1, V domains shown) VH: QVQLKESGPELVKPGASVKISCKTSGYIFTNYYIHWVKQRPGQGLEWIGWIFPGSGDTNYNEKFKGKATLTADTSSSTASMQLSSLTSEDSAVYFCARTWNYDARWGYWGQGTTVTVSS VL: DILLTQSPASLAVSLGQRATISCRVSESIDSYGISFMHWYQQKSGQPPKVLIYRASTLESGIPARFSGSGSRTDFTLTINPVEADDVATYYCQQSNEDPFTFGSGTKLEIK", "binding result": "no binding"}
{"BINDER": "2D8 (antibody, human IgG1, V domains shown) VH: EVQLQQSGPELVKPGASVKISCKSSGYSFTNFYIHWVKQRPGQGLDWIGWIFPGSGETNFNEKFKVKAALTADTSSNTAYMQLSSLTSEDSAVYFCARSWNYDARWGYWGQGTTVTVSS VL: DAVMTQTPASLAVSLGQRATISCRASESVDSYGISFMHWYQQKPGQPPKLLIYRASILESGIPARFSGSGSRPDFSLTINPVEADDVATYYCQQSNEDPFTFGSGTKLEIK", "binding result": "no binding"}
